Attribute: pIC50
measurement target: human GPR68 (Homo sapiens, UniProt Q15743)
Construct: encoding full-length human GPR68 (uniprot ID: Q15743); expressed in transfected cells; host or cells: HEK293T
Sequence (Q15743 whole entry): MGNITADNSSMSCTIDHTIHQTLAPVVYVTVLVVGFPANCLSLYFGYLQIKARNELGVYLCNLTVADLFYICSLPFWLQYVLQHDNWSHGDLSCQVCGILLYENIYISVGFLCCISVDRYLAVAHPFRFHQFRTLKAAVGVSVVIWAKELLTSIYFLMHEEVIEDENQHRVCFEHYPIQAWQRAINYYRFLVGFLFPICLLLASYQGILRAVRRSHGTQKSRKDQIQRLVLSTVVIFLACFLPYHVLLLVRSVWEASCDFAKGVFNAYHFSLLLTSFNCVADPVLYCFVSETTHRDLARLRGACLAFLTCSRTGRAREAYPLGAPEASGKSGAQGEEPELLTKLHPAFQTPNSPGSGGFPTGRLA
assay notes: GPR68 Biochemical Assay (Promega GloSensor cAMP assay, GPR68 antagonism)
Assay type: cell-based
protocol conditions: HEK293T cells transiently expressing hGPR68, antagonism of pH 5.5 stimulated cAMP, 15 min, read-out: hGPR68 IC50
pIC50: −log10 of the molar value.

Worked cases, answers included:
* NC(=O)c1c(-c2ccccc2F)nn2c(C(=O)NC3Cc4ccccc4C3)cccc12 | 5.30 to 6.30
* NC(=O)c1c(C2CC2)nn2c(C(=O)NC3CCC(F)(F)CC3)ccnc12 | > 7.30
* COCc1nn2c(C(=O)N[C@H]3CCOc4cc(F)ccc43)ccnc2c1C(N)=O | > 7.30
* COCc1nn2c(C(=O)NC3CCOc4cc(F)c(F)cc43)ccnc2c1C(N)=O (stereo not drawn) | > 7.30
* COCc1nn2c(C(=O)N[C@@H]3CCOc4cc(F)ccc43)ccnc2c1C(N)=O | > 7.30
* COCc1nn2c(C(=O)NC3Cc4ccccc4C3)ccnc2c1C(=O)O | 6.30 to 7.30

**Query** Please give measured pIC50 of the following entry: `COCc1nn2c(C(=O)N[C@@H]3COc4c3ccc(F)c4F)ccnc2c1C(N)=O`
**Result** > 7.30

**Query** Please give measured pIC50 of the following entry: `CN(C)CCNc1nn2c(C(=O)NC3Cc4ccccc4C3)ccnc2c1C(N)=O`
**Result** 4.00 to 4.30

These measurements were taken from patent US20260308159A1.
